- Tested on: α-isomaltosylglucosaccharide-forming enzyme
- method: Transfer-acceptor specificity, enzyme of A19 strain
- Format: biochemical, Arthrobacter globiformis A19 strain
- Parameters: key: −: no saccharide-transferred product was detected through transfer reaction to acceptor; ±: a saccharide-transferred product was detected in an amount less than one percent through transfer reaction to acceptor; +: a saccharide-transferred product was detected in an amount over one percent but less than 10% through transfer reaction to acceptor; ++: a saccharide-transferred product was detected in an amount over ten percent through transfer reaction to acceptor
- conditions_used: acceptor 1.6%, PINE-DEX #100 donor 4%, one unit/g donor, 30° C., pH 8.4, 24 hours
measured_metric: Product of transferring reaction, Enzyme of A19 strain

[
  {
    "test_smiles": "C[C@H](O)[C@H](O)[C@@H](O)[C@@H](O)C=O",
    "result": "−"
  }
]

* * *

- Test system: α-isomaltosylglucosaccharide-forming enzyme
- method: Action on saccharides as substrates (TLC), enzyme of N75 strain
- Format: biochemical, Bacillus globisporus N75 strain
- Design: key: −: it showed no change; +: it showed a slight reduction of the color spot of the substrate and the formation of other reaction product; ++: it showed a high reduction of the color spot of the substrate and the formation of other reaction product; +++: it showed a substantial disappearance of the substrate spot and the formation of other reaction product
- conditions_used: two units/g substrate, substrate 2% (w/v), 30° C., pH 6.0, 24 hours
measured_metric: Enzymatic action, Enzyme of N75 strain

[
  {
    "molecule": "OC[C@H]1O[C@H](O[C@H]2[C@H](O)[C@@H](O)[C@@H](O[C@H]3[C@H](O)[C@@H](O)[C@@H](O[C@H]4[C@H](O)[C@@H](O)C(O)O[C@@H]4CO)O[C@@H]3CO)O[C@@H]2CO)[C@H](O)[C@@H](O)[C@@H]1O (stereo partly drawn) [Maltotetraose, maltotetraose]",
    "subject_of_test": "α-isomaltosylglucosaccharide-forming enzyme",
    "result": "+++"
  },
  {
    "molecule": "OC[C@H]1O[C@H](O[C@H]2[C@H](O)[C@@H](CO)OC(O)[C@@H]2O)[C@H](O)[C@@H](O)[C@@H]1O (stereo partly drawn) [Nigerose, nigerose]",
    "subject_of_test": "α-isomaltosylglucosaccharide-forming enzyme",
    "result": "+"
  },
  {
    "molecule": "O=C[C@H](O)[C@@H](O)[C@H](O[C@@H]1O[C@H](CO)[C@@H](O)[C@H](O)[C@H]1O)[C@H](O)CO [Cellobiose, cellobiose]",
    "subject_of_test": "α-isomaltosylglucosaccharide-forming enzyme",
    "result": "−"
  }
]

* * *

- System: α-isomaltosylglucosaccharide-forming enzyme
- method: Action on saccharides as substrates (TLC), enzyme of C11 strain
- Format: biochemical, Bacillus globisporus C11 strain
- Design: key: −: it showed no change; +: it showed a slight reduction of the color spot of the substrate and the formation of other reaction product; ++: it showed a high reduction of the color spot of the substrate and the formation of other reaction product; +++: it showed a substantial disappearance of the substrate spot and the formation of other reaction product
- conditions_used: two units/g substrate, substrate 2% (w/v), 30° C., pH 6.0, 24 hours
measured_metric: Enzymatic action, Enzyme of C11 strain

[
  {
    "compound": "OC[C@H]1O[C@@](CO)(O[C@H]2O[C@H](CO)[C@@H](O[C@H]3O[C@H](CO)[C@@H](O)[C@H](O)[C@H]3O)[C@H](O)[C@H]2O)[C@@H](O)[C@@H]1O",
    "result": "+"
  },
  {
    "compound": "OC[C@H]1O[C@H](O[C@H]2C(O)O[C@H](CO)[C@@H](O)[C@@H]2O)[C@H](O)[C@@H](O)[C@@H]1O (stereo partly shown)",
    "result": "+"
  },
  {
    "compound": "OC[C@H]1O[C@H](O[C@H]2[C@H](O)[C@@H](O)[C@H](O)O[C@@H]2CO)[C@H](O)[C@@H](O)[C@@H]1O",
    "result": "+"
  },
  {
    "compound": "O=C[C@H](O)[C@@H](O)[C@H](O[C@@H]1O[C@H](CO)[C@@H](O)[C@H](O)[C@H]1O)[C@H](O)CO",
    "result": "−"
  },
  {
    "compound": "OC[C@H]1O[C@H](O[C@H]2O[C@H](CO)[C@@H](O[C@H]3O[C@H](CO)[C@@H](O)[C@H](O)[C@H]3O)[C@H](O)[C@H]2O)[C@H](O)[C@@H](O)[C@@H]1O [Maltosyl glucoside, maltosyl glucoside]",
    "result": "++"
  },
  {
    "compound": "OC[C@H]1O[C@H](O[C@H]2O[C@H](CO)[C@@H](O)[C@H](O)[C@H]2O[C@H]2O[C@H](CO)[C@@H](O)[C@H](O)[C@H]2O)[C@H](O)[C@@H](O)[C@@H]1O",
    "result": "−"
  },
  {
    "compound": "OC[C@H]1O[C@H](O[C@H]2O[C@H](CO)[C@@H](O)[C@H](O)[C@H]2O)[C@H](O)[C@@H](O)[C@@H]1O",
    "result": "−"
  },
  {
    "compound": "OC[C@H]1O[C@@H](O[C@H]2[C@H](O)[C@@H](O)C(O)O[C@@H]2CO)[C@H](O)[C@@H](O)[C@H]1O (stereo partly shown)",
    "result": "−"
  },
  {
    "compound": "OC[C@H]1O[C@H](O[C@H]2[C@H](O)[C@@H](O)[C@@H](O[C@H]3[C@H](O)[C@@H](O)[C@@H](O[C@H]4[C@H](O)[C@@H](O)C(O)O[C@@H]4CO)O[C@@H]3CO)O[C@@H]2CO)[C@H](O)[C@@H](O)[C@@H]1O (stereo partly shown)",
    "result": "+++"
  },
  {
    "compound": "OC[C@@H](O)[C@@H](O[C@H]1O[C@H](CO)[C@@H](O)[C@H](O)[C@H]1O)[C@H](O)[C@@H](O)CO",
    "result": "−"
  }
]

* * *

- System: α-isomaltosylglucosaccharide-forming enzyme
- method: Action on saccharides as substrates (TLC), enzyme of A19 strain
- Type: biochemical, Arthrobacter globiformis A19 strain
- Set-up: key: −: it showed no change; +: it showed a slight reduction of the color spot of the substrate and the formation of other reaction product; ++: it showed a high reduction of the color spot of the substrate and the formation of other reaction product; +++: it showed a substantial disappearance of the substrate spot and the formation of other reaction product
- conditions_used: two units/g substrate, substrate 2% (w/v), 30° C., pH 8.4, 24 hours
measured_metric: Enzymatic action, Enzyme of A19 strain

[
  {
    "molecule": "OC[C@H]1O[C@H](O[C@H]2[C@H](O)[C@@H](CO)OC(O)[C@@H]2O)[C@H](O)[C@@H](O)[C@@H]1O (stereo partly drawn) [Nigerose, nigerose]",
    "result": "+"
  },
  {
    "molecule": "OC[C@H]1O[C@@](CO)(O[C@H]2O[C@H](CO)[C@@H](O[C@H]3O[C@H](CO)[C@@H](O)[C@H](O)[C@H]3O)[C@H](O)[C@H]2O)[C@@H](O)[C@@H]1O [Erlose, erlose]",
    "result": "+"
  },
  {
    "molecule": "OC[C@H]1O[C@H](O[C@H]2O[C@H](CO)[C@@H](O)[C@H](O)[C@H]2O)[C@H](O)[C@@H](O)[C@@H]1O [Trehalose, α,α-trehalose]",
    "result": "−"
  }
]

* * *

- System: α-isomaltosylglucosaccharide-forming enzyme
- method: Action on saccharides as substrates (TLC), enzyme of N75 strain
- Assay type: biochemical, Bacillus globisporus N75 strain
- Set-up: key: −: it showed no change; +: it showed a slight reduction of the color spot of the substrate and the formation of other reaction product; ++: it showed a high reduction of the color spot of the substrate and the formation of other reaction product; +++: it showed a substantial disappearance of the substrate spot and the formation of other reaction product
- conditions_used: two units/g substrate, substrate 2% (w/v), 30° C., pH 6.0, 24 hours

[
  {
    "molecule": "OC[C@H]1O[C@H](OC[C@H]2OC(O)[C@H](O)[C@@H](O)[C@@H]2O)[C@H](O)[C@@H](O)[C@@H]1O (some centres unmarked) [Isomaltose, isomaltose]",
    "Enzymatic action, Enzyme of N75 strain": "−"
  },
  {
    "molecule": "OC[C@@H](O)[C@@H](O[C@H]1O[C@H](CO)[C@@H](O[C@H]2O[C@H](CO)[C@@H](O)[C@H](O)[C@H]2O)[C@H](O)[C@H]1O)[C@H](O)[C@@H](O)CO [Maltotriitol, maltotriitol]",
    "Enzymatic action, Enzyme of N75 strain": "+"
  },
  {
    "molecule": "OC[C@H]1O[C@@](CO)(O[C@H]2O[C@H](CO)[C@@H](O)[C@H](O)[C@H]2O)[C@@H](O)[C@@H]1O [Sucrose, sucrose]",
    "Enzymatic action, Enzyme of N75 strain": "−"
  },
  {
    "molecule": "OC[C@H]1O[C@H](O[C@H]2O[C@H](CO)[C@@H](O)[C@H](O)[C@H]2O[C@H]2O[C@H](CO)[C@@H](O)[C@H](O)[C@H]2O)[C@H](O)[C@@H](O)[C@@H]1O [Selaginose, selaginose]",
    "Enzymatic action, Enzyme of N75 strain": "−"
  },
  {
    "molecule": "OC[C@H]1O[C@@H](O[C@H]2O[C@H](CO)[C@@H](O)[C@H](O)[C@H]2O)[C@H](O)[C@@H](O)[C@@H]1O [Neotrehalose, neotrehalose]",
    "Enzymatic action, Enzyme of N75 strain": "+"
  }
]
